PROCEDURE DETAILS: yeast display, Sf9 membrane polyspecificity reagent, FACS + sequencing; frameworks hold sequencing errors
READOUT KIND: polyreactivity (PSR sort gate)

// below: answered sequences
QVQLVESGGGLVQAGGSLRLSCAASGFTLGSNVMGWYRQAPGKERELVAGISQSGGRTFYADSVKGRFTISRDNSKNTVYLQMNSLKPEDTAVYYCAARRYAVEGSKNYYWGQGTQVTVTS: low polyreactivity
QVQLVESGGGLVQAGGSLRLSCAASGFNIYNNAMAWYRQAPGKERELVAAITSNGGRTYYADSVKGRFTISRDNAKNTFYLQMNSLKPEDTAVYYCAVDLYVWNVHYYYWGQGTQVTVSS: high polyreactivity
QVQLEESGGGIVQAGGSLRLSCAASGRTFGANAMGWYRQAPGKERELVAAISSSDDSTYYADSVKGRFTISRDNAKNTVYLQMNSLKPEDTAVYYCAAEDVYPQLDYWGQGTQVTVSS: low polyreactivity
QVQLVESGGGLVQAGGSLRLSCAATGIIFGTYAMGWYLQAPGTERELVAVISWRGGTYADSVKRRFTISRDNAKNTVYLQMNSLKPEDSAVYYCNARTWARLGSYWWIVDSWGQGTQVTVSS: high polyreactivity
QVQLVQSGGGLVQAGGSLRLICAASGSIFLYYAMGWYRQAPAKERELVAGIRRGGRKNYADSVKGRFTISRDNSKNTVYLQLNSLKPEDTGVYYCAKGGYWGQCTQVTVSS: high polyreactivity

Any idea what polyreactivity (PSR sort gate) was measured for `QVQLVESGGGLVQAGGSLRLSCAASGRIFFVYAMGWYRQAPGKERELVAGIRSSGGSTYYADSVKGRFTISRDNAKKTVYLQMNSLKPEDTAVYYCAARRVGYPSPYSTYGMYYWGQGTQVTVSS` ?
high polyreactivity

And `QVQLVESGGGLVQAGGSLRLSCAASGSIFAKYAMGWYRQAPGKERELVAAISSGGSTYYADSVKGRFTISRDNAKNTVYLQMNSLKPEDTAVYYCNKPYGKETRYTFKVWYEYNYWGQGTQVTVSS` ?
low polyreactivity

----------
PROCEDURE DETAILS: yeast display, Sf9 membrane polyspecificity reagent, FACS + sequencing; frameworks hold sequencing errors
READOUT KIND: polyreactivity (PSR sort gate)

// below: answered sequences
QVQLVESGGGLVQAGGSLRLSCAASGRIFPRYAMGWYTQAPGKERELVAAITTGGSTYADSVKGRFTISRDNAKNTVYLQMNSLKPEDTAVYYCGVDGYVAFSPDRNNYWGQGTQVTVSA: low polyreactivity
QFQLEESGVGLVQAGGSLRLSCAASGFTFNVYAMGWYRQAPGKERELVAAIRWGAGSTYYADSVKGRFTISRDNAKNTVYLQMNSLKPEDTAVYYCAKDSGVWRYDHWGQGTQVTVSS: low polyreactivity
QVQLVESGGGLVQAGGSLRLSCAASGRIFRPNAMGWNRQAPGKVRELVAAISSGGSTYYADSVKGRFTISRDNAKNTVYLQMNSLKPEDTAVYYCAARSRGYDIRYGYWGQGTQVTVSS: high polyreactivity
QVQLVESGGGLVQAGGSLRLSCAASGRIFFYNTKGWYRQAPGKERELVAVISSSDGSTYADSVKGRFTISRDNAKNTVYLQMNSLKPEDTAVYYCNAGWTRYVPYVRMDYWGHGTQVTVSS: high polyreactivity

Next, consider the following sequence.
Any idea what polyreactivity (PSR sort gate) was measured for `QVQLVESGGGLVQAGGSLRLSCAASGFIFYYYAMGWYRQAPGKERELVAAISVRGGRTYYADSVKGRFTISRDNAKNTVYLQMNSLKPEDTAVYYCAADLYNRGRGSSQSYRTGYDYWGQGTQVTVSS` ?
high polyreactivity

----------
PROCEDURE DETAILS: yeast display, Sf9 membrane polyspecificity reagent, FACS + sequencing; frameworks hold sequencing errors
READOUT KIND: polyreactivity (PSR sort gate)

// below: answered sequences
QVQLVESGGGLVQAGGSLRLSCAASGSTFQSYAMGWYRPAPGKERELVATITWSSGRTYYADSVKGRFTISRDNAKNTVYLQMKSLKPEDTAVYYCAARKRPFYKYDYWGQGTQVTVSS: high polyreactivity
QVQLVESGGGLVQAGGSLRLSCAASGRTFTVNAMGWSRQAPGKERELVAAISTSTGRTYYADSVKGRFTISRDNAKNTVYLQMNSLKPEDTAVYYCAAQSPYRGYYYTYYLYDYWGQGTQVTVSS: high polyreactivity
QVQLVESGGGLVQAGGSLRLSCAASGSIFVGNAMGWYRQAPGKERELVAAISSSGGSTYYADSVKGRFTISRDNAKNTVYLQMNSLKPEDTAVYYCAADTYSTSVYYYWGQGTQVTVSS: low polyreactivity
QVQLVESGGGLVQAGGSLRLSCAASGSTFYLYAMGWYRQAPGKERELVAAISWSGDSTYYADSVKGRFTISRDNAKNTVYLQMNSLKPEDTAVYYCAAEFYWGDLSYWGQGTQVSVSS: high polyreactivity
QVQLVESGGGLVQAGGSLRLSCAASGRIFYVYAMGWYRAPGKERELVASISYIGGSTYYADSVKGRFTISRDNAKNTVYLQMNSLKPEDTAVYYCATDYYGYTVSYLVPSWPDDYWGQGTQVTVSS: low polyreactivity

Any idea what polyreactivity (PSR sort gate) was measured for `QVQLVESGGGLVQAGGSLRLSCAASGSTFTVNGMGWYRQAPGKERELVASITWSGGSTYYADSVKGRFTISRDNAKNTVYLQLNSLKPEDTAVYYCNAVDTRVPSIRFDYWGQRTQVTVSS` ?
low polyreactivity

And `QVQLVESGGGLVQAGGSLRLSCAASGLTFPRNTMGWYRQAPGKERELVAVISSSGGITYYADSVKGRFTISRDNAKNTVYLQMNSLKPEDTAVYYCAARTRVPRMGYWGQGTQVTVSS` ?
high polyreactivity

And `QVQLVESGGGLVQAGGSLRLSCAASGSTFRYYAMGWYRQAPGKERELVAAIDRSGGNTYYADSVKGRFTISRDNAKNTVYLQMYSLKPEDTAVYYCNTASWRAQYYYWGQGTQVTVSS` ?
high polyreactivity

And `QVQLVESGGGLVQAGGSLRLSCAASGFIFEWYTMGWYRQAPGKERELVARISSDGSTTYADSVKGRFTISRDNAKNTVYLQMNSLKPEDTAVYYCAADVTYPGLKYIFDYWGQGTQVTVSS` ?
low polyreactivity

And `QVQLVESGGGLVQAGGSLRLSCAASGRIFTGYAMGWYRQAPGKERELVAAITASGGNTYYADSVKGRFTISRDNAKNTVYLQMNSLKPEDTAVYYCAAGWYDQPDDYTSAYGVTKYGYWGQGTQVTVSS` ?
low polyreactivity

And `QVQIEESGGGLVQAGGSLRLSCAASGRIFARNALGWYRQSPGTEREFVAAITHSGGNTYYADSVKGRFTISRDNAKNSVYLQMNSLKPEDTAVYYCAKDYRSTKYDYWGQGTQVTVSS` ?
low polyreactivity

----------
PROCEDURE DETAILS: yeast display, Sf9 membrane polyspecificity reagent, FACS + sequencing; frameworks hold sequencing errors
READOUT KIND: polyreactivity (PSR sort gate)

// below: answered sequences
QVQLVESGGGLVQAGGSLRLSCAASGRIFRYYAMGWYRQAPGKERELVAGITGSGTTNYADSVKGRFTISRDNAKNTVYLQMNSLKPEDTAVYYCNADRYTFWYRYERGYWGQGTQVTVSS: high polyreactivity
QVQLVESGGGLVQAGGSLRLRCAASGSIFYRNAMGWYRQAPGKERELVASITSGGRTNYADSLKGRFTISRDNAKNTVYLQMNSLKPEDTAVYYCAVQYHAASDHSYWGQGTQVTVSS: low polyreactivity
QVQLVESGGGLVQAGGSLRLSCAASGLIFYGNAMGWYRQEPGKERELVAAISWSGGNTSYADSVKGRFTISRDNAKNTVYLQMNSLKPEVTAVYYCNADSLPSVERYGYWGQGTQVTVSS: low polyreactivity
QVQLVESGGGLVQAGGSLRLSCAASGSTSYTNAMGWYRQAPGKERELVAGITRSGDSTYYADSVKGRFTISRDNAKNTVYLQMNSLKPEDTAVYYCAAEYSGQYYSPVSYLYDYWGQGTQVTVSS: high polyreactivity
QVQLVESGGGLVQAGGSLRLSSAASGFTFDYYAMGWYRQAPGKERELVAAISTSGGSTYYADSVKGRFTISRDNAKNTVYLQMNSLKPEDTAVYYCNVVFYEYSSVSYDYWGQGTQVTVSS: high polyreactivity

Any idea what polyreactivity (PSR sort gate) was measured for `QVQLVESGGGLVQAGGSLRLSCAASGRTFYDYDMGCDRQAPGKERELVAAISGGDSTYYADSVKGRFTISRDNAKNTVYLQMNSLKPEDTAVYYCAVTPRGLPYGAYLLYYWGQGTQVTVSS` ?
low polyreactivity

And `QVQLVESGGGLVQAGGSLRLSCAASGSISVYNAMGWYRQAPGKERELVAAISWSGGRTSYADSVKGRFTISRDNAKNTVYLQMNSLKPEDTAVYYCAADELTVLWDEDYWGQGTQVTVSS` ?
low polyreactivity

And `QVQLVESGGGLVQAGGSLRLSCAASGSIFGAYAMGWYRQAPGKERELVAAISWRDGSTYYADSVKGRFTISRDNAKNTVYLQMNSLKPEDTAVYYCAAEYVYIFYDSDYWGQGTQVTVSS` ?
high polyreactivity

And `QVQLVESGGGLVQAGGSLRLSCAASGLTFYYNAMGWYRQAPGKERELVAAISFSGGRTYYADSVKGRFTISRDNAKNTVYLQMNSLKPEDTAVYYCAADWVRNWYTSGSWGQGTQVTVSS` ?
high polyreactivity

And `QVQLVESGGGLVQAGGSLRLSCAASGFIFYRNAMGWYRQAPGKERELVAAISGSGGRTYYADSVKGRFTISRDNAKITVYLQMNSLNPEDTAVYYCNAGPLYRGEYDYWGQGTQVTVSS` ?
high polyreactivity

And `QVQLVESGGGLVQAGGSLRLSCAASGFIFLYNAMGWYRQAPGKERELVATISTGGDTTYADSVKGRFTISRDNAKNTVYLQMNSVKPEDTAVYYCAKLDLSIFRWDTEFGLYDYWGQGTQVTVLS` ?
low polyreactivity

And `QVQLVESGGGLVQAGGSLRLSCAASGRTFDYYVMGWYRQAPGKERELVAAITSGGSTYYADSVKGRFTISRDNAKNTVYLQMNSMKPEDTAVYYCNNVRGAFYSHLFDYWGQGTQVTVSS` ?
high polyreactivity
